# ASSAY DETAILS: Mouse pharmacokinetics assay
# Format: in vivo
# TEST CONTEXT: CD-1 mice; PO (10) mg/kg
So I've got a bunch of compounds here, and I need their Cmax values.

Please review the entries below; each comes with its answer.
COc1ccc(NC(=O)N2CCCCN3[C@H](CO)[C@H](c4ccc(C#Cc5ccccc5)cc4)[C@@H]3C2)cc1 : 600 nM
COc1ccc(NC(=O)N2CCCCN3[C@H](CN(C)C)[C@H](c4ccc(C#Cc5ccccc5)cc4)[C@@H]3C2)cc1 : 540 nM

Switching to the query record.
Query: What does the record list as Cmax for `COc1ccc(NC(=O)N2CCCCN3[C@H](CN)[C@H](c4ccc(C#Cc5ccccc5)cc4)[C@@H]3C2)cc1` ?
Reply: 600 nM

----------
# ASSAY DETAILS: Metabolic stability assay, human liver microsomes
# Assay type: in vitro ADME
ENDPOINT: Human Clint (µL/min/mg)
Give bare numbers, in µL/min/mg.

Please review the entries below; each comes with its answer.
COc1ccc(NC(=O)N2CCCCN3[C@H](CN(C)C)[C@H](c4ccc(C#Cc5ccccc5)cc4)[C@@H]3C2)cc1 [BRD7929] : 31
COc1ccc(NC(=O)N2CCCCN3[C@H](CO)[C@H](c4ccc(C#Cc5ccccc5)cc4)[C@@H]3C2)cc1 [BRD3444] : 142

Switching to the query record.
Query: What does the record list as Human Clint for COc1ccc(NC(=O)N2CCCCN3[C@H](COCCC(=O)O)[C@H](c4ccc(C#Cc5ccccc5)cc4)[C@@H]3C2)cc1 [BRD3316] ?
Reply: 34

----------
# ASSAY DETAILS: Solubility assay in PBS
# Assay type: physicochemical
# TEST CONTEXT: PBS pH 7.4 with 1% DMSO
So I've got a bunch of molecules here, and I need their PBS solubility values.
Give bare numbers, in µM.

COc1ccc(NC(=O)N2CCCCN3[C@H](CN)[C@H](c4ccc(C#Cc5ccccc5)cc4)[C@@H]3C2)cc1 : 25
COc1ccc(NC(=O)N2CCCCN3[C@H](CN(C)C)[C@H](c4ccc(C#Cc5ccccc5)cc4)[C@@H]3C2)cc1 : 15

Switching to the query record.
Query: What does the record list as PBS solubility for `COc1ccc(NC(=O)N2CCCCN3[C@H](COCCC(=O)O)[C@H](c4ccc(C#Cc5ccccc5)cc4)[C@@H]3C2)cc1` ?
Reply: 91

----------
# Test system: P. falciparum (NF54) male and female stage-V gametocytes
# ASSAY DETAILS: Dual gamete formation assay
# Assay type: cell-based, Plasmodium falciparum
# TEST CONTEXT: read-out: EC50, gamete formation, female (F)
ENDPOINT: EC50 (nM)
Answers are plain numbers, in nM.

Query: What does the record list as EC50 for `COc1ccc(NC(=O)N2CCCCN3[C@H](CO)[C@H](c4ccc(C#Cc5ccccc5)cc4)[C@@H]3C2)cc1` ?
Reply: 804

----------
# Tested on: P. falciparum NITD609^R
# ASSAY DETAILS: Blood-stage growth inhibition, P. falciparum NITD609^R strain
# Assay type: cell-based, Plasmodium falciparum
# TEST CONTEXT: strain carrying a point mutation in P. falciparum ATPase4
ENDPOINT: EC50 (nM)
Give bare numbers, in nM.

Query: Entry `COc1ccc(-c2ccccc2[C@H]2[C@@H](C#N)N(C(=O)C3CCCC3)[C@H]2CO)cc1` , system P. falciparum NITD609^R: what EC50 was measured?
Reply: 1770

----------
# Tested on: P. falciparum (NF54) male and female stage-V gametocytes
# ASSAY DETAILS: Dual gamete formation assay
# Assay type: cell-based, Plasmodium falciparum
# TEST CONTEXT: read-out: EC50, gamete formation, male
ENDPOINT: EC50

Query: What does the record list as EC50 for `COc1ccc(NC(=O)N2CCCCN3[C@H](CO)[C@H](c4ccc(C#Cc5ccccc5)cc4)[C@@H]3C2)cc1` ?
Reply: ~1000 nM

----------
So I've got a bunch of compounds here, and I need their CC50 values.
# System: HepG2 cell line
# ASSAY DETAILS: Mammalian cell cytotoxicity assay
# Type: cell-based, human
# TEST CONTEXT: read-out: HepG2 CC50; 72 h

Please review the entries below; each comes with its answer.
COc1ccc(NC(=O)N2CCCCN3[C@H](CO)[C@H](c4ccc(C#Cc5ccccc5)cc4)[C@@H]3C2)cc1 [BRD3444] : > 50 µM
COc1ccc(NC(=O)N2CCCCN3[C@H](CN(C)C)[C@H](c4ccc(C#Cc5ccccc5)cc4)[C@@H]3C2)cc1 [BRD7929] : 9 µM

Fill in CC50 for each of the 2 compounds listed.
1. COc1ccc(NC(=O)N2CCCCN3[C@H](COCCC(=O)O)[C@H](c4ccc(C#Cc5ccccc5)cc4)[C@@H]3C2)cc1 [BRD3316]
2. COc1ccc(NC(=O)N2CCCCN3[C@H](CN)[C@H](c4ccc(C#Cc5ccccc5)cc4)[C@@H]3C2)cc1 [BRD1095]

Reply:
> 50 µM
15.6 µM

----------
# ASSAY DETAILS: Metabolic stability assay, mouse liver microsomes
# Type: in vitro ADME
ENDPOINT: Mouse Clint (µL/min/mg)
One number for each entry, in µL/min/mg.

Please review the entries below; each comes with its answer.
COc1ccc(NC(=O)N2CCCCN3[C@H](COCCC(=O)O)[C@H](c4ccc(C#Cc5ccccc5)cc4)[C@@H]3C2)cc1 [BRD3316] : 38
COc1ccc(NC(=O)N2CCCCN3[C@H](CN(C)C)[C@H](c4ccc(C#Cc5ccccc5)cc4)[C@@H]3C2)cc1 [BRD7929] : 21

Switching to the query record.
Query: What does the record list as Mouse Clint for COc1ccc(NC(=O)N2CCCCN3[C@H](CO)[C@H](c4ccc(C#Cc5ccccc5)cc4)[C@@H]3C2)cc1 [BRD3444] ?
Reply: 248

----------
# ASSAY DETAILS: Pharmacokinetics in P. falciparum 3D7^HLH/BRD-infected NSG mice
# Type: in vivo, mouse
# TEST CONTEXT: infected NSG mice; PO (9) mg/kg
ENDPOINT: Cmax (nM)
Numbers only, in nM.

Query: What does the record list as Cmax for `COc1ccc(NC(=O)N2CCCCN3[C@H](CN(C)C)[C@H](c4ccc(C#Cc5ccccc5)cc4)[C@@H]3C2)cc1` ?
Reply: 600

----------
# Test system: P. falciparum (NF54) stage V gametocytes
# ASSAY DETAILS: P. falciparum standard membrane feeding assay
# Type: cell-based, Plasmodium falciparum
# TEST CONTEXT: read-out: EC50, standard membrane-feeding assay, direct (D), single drug concentration (10 µM) immediately before blood feeding
pEC50: −log10 of the molar value.
ENDPOINT: pEC50

Query: What does the record list as pEC50 for `COc1ccc(NC(=O)N2CCCCN3[C@H](CN(C)C)[C@H](c4ccc(C#Cc5ccccc5)cc4)[C@@H]3C2)cc1` ?
Reply: > 5.00

----------
# System: P. falciparum Dd2
# ASSAY DETAILS: In vitro P. falciparum blood-stage growth inhibition assay
# Format: cell-based, Plasmodium falciparum
# TEST CONTEXT: read-out: Pf, Dd2 EC50; blood stage
ENDPOINT: EC50 (nM)
Answers are plain numbers, in nM.

Please review the entries below; each comes with its answer.
COc1ccc(NC(=O)N2CCCCN3[C@H](CN)[C@H](c4ccc(C#Cc5ccccc5)cc4)[C@@H]3C2)cc1 : 10
COc1ccc(NC(=O)N2CCCCN3[C@H](CO)[C@H](c4ccc(C#Cc5ccccc5)cc4)[C@@H]3C2)cc1 : 9
COc1ccc(NC(=O)N2CCCCN3[C@H](CN(C)C)[C@H](c4ccc(C#Cc5ccccc5)cc4)[C@@H]3C2)cc1 : 9

Switching to the query record.
Query: What does the record list as EC50 for `COc1ccc(NC(=O)N2CCCCN3[C@H](COCCC(=O)O)[C@H](c4ccc(C#Cc5ccccc5)cc4)[C@@H]3C2)cc1` ?
Reply: 23

----------
# ASSAY DETAILS: Mouse pharmacokinetics assay
# Format: in vivo
# TEST CONTEXT: CD-1 mice; PO (13) mg/kg
ENDPOINT: Cmax (µM)
Answers are plain numbers, in µM.

Query: What does the record list as Cmax for COc1ccc(NC(=O)N2CCCCN3[C@H](COCCC(=O)O)[C@H](c4ccc(C#Cc5ccccc5)cc4)[C@@H]3C2)cc1 [BRD3316] ?
Reply: 6.8

----------
# System: P. falciparum Dd2
# ASSAY DETAILS: In vitro P. falciparum blood-stage growth inhibition assay
# Assay type: cell-based, Plasmodium falciparum
# TEST CONTEXT: read-out: PfDd2 EC50; asexual blood-stage parasites (Dd2); SAR table
ENDPOINT: pEC50
Answers are plain numbers, as −log10 of the molar value.

Please review the entries below; each comes with its answer.
COc1ccc(NC(=O)N2CCCCN3[C@H](CN)[C@H](c4ccc(C#Cc5ccccc5)cc4)[C@@H]3C2)cc1 : 8.00
COc1ccc(NC(=O)N2CCCCN3[C@H](CO)[C@H](c4ccc(C#Cc5ccccc5)cc4)[C@@H]3C2)cc1 : 7.96
COc1ccc(NC(=O)N2CCCCN3[C@H](COCCC(=O)O)[C@H](c4ccc(C#Cc5ccccc5)cc4)[C@@H]3C2)cc1 : 7.66
COc1ccc(NC(=O)N2CCCCN3[C@H](CN4CCN(C)CC4)[C@H](c4ccc(C#Cc5ccccc5)cc4)[C@@H]3C2)cc1 : 6.80
COc1ccc(NC(=O)N2CCCCCN3[C@H](CO)[C@H](c4ccc(C#Cc5ccccc5)cc4)[C@@H]3C2)cc1 : 7.06

Fill in pEC50 for each of the 2 molecules listed.
1. COc1ccc(NC(=O)N2CCCN3[C@H](CO)[C@H](c4ccc(C#Cc5ccccc5)cc4)[C@@H]3C2)cc1
2. COc1ccc(NC(=O)N2CCCCN3[C@H](CO)[C@H](c4ccc(C#CC5CC5)cc4)[C@@H]3C2)cc1

Reply:
6.07
4.91
